Tested on: 786-0
Experiment: NCI tumour cell line growth inhibition, 48 h
Activity calls are given as the source filed them. Rule as the data show it: active = GI50 up to about 1.1 µM and inactive = higher.
For each record, write down the corresponding GI50.

## Task Tell me the measured GI50 of CC[C@@H]1NC(C(=O)OC)Cc2c1[nH]c1ccccc21 (stereo not given in full) , please.
## Result > 100 µM (inactive)

## Task Tell me the measured GI50 of CCN(CC)CCNC(=O)c1cc2cc(NC(=O)c3cc4cc(NC(=O)c5cc6cc([N+](=O)[O-])ccc6[nH]5)ccc4[nH]3)ccc2[nH]1 , please.
## Result > 100 µM (inactive)

## Task Tell me the measured GI50 of Cc1cnc(-c2ccccc2)o1 , please.
## Result > 100 µM (inactive)

## Task Tell me the measured GI50 of O=c1ccc2c(Cl)sc(Cl)c2[nH]1 , please.
## Result > 100 µM (inactive)

## Task Tell me the measured GI50 of CCc1cccc(C)c1NC(=O)C1=C(C)NC(C)=C(C(=O)Nc2c(C)cccc2CC)C1c1ccc2c(c1)OCO2 , please.
## Result 16.7 µM (inactive)

* * *

For each record, write down the corresponding GI50.
Test system: KM12
Experiment: NCI tumour cell line growth inhibition, 48 h
Active and inactive are the calls of the source. No stated cut-off is given here; in the data, active = GI50 up to about 1.1 µM and inactive = higher.

## Task Look up GI50 with KM12 for this compound: CCCCCCCCCCCCCCCCNC(=O)/C(O)=C/C(=O)c1ccc(C)cc1
## Result > 10 µM (inactive)

## Task Look up GI50 with KM12 for this compound: CCC(c1nc2ccccc2c(=O)n1NC(=O)C(C)(C)C)C1(O)CCCCC1 (stereo not given)
## Result > 100 µM (inactive)

## Task Look up GI50 with KM12 for this compound: COCC1OC(OC2OCC3OC4(OCC(O)(C(C)OC)C5OCOC54)OC3C2OC)C(OC)C(O)C1OC1OC(C)C(OC)C(OC2OC(C)C3OC4(CC(O)C(OC5CC(OC6CC(C)([N+](=O)[O-])C(OC)C(C)O6)C(OC(=O)c6c(C)c(Cl)c(O)c(Cl)c6OC)C(C)O5)C(C)O4)OC3(C)C2O)C1O (stereo not given)
## Result > 100 µM (inactive)

## Task Look up GI50 with KM12 for this compound: Cc1cc(NS(=O)(=O)c2ccc(NC(=O)c3ccc4[nH]c5ccccc5c(=O)c4c3)cc2)no1
## Result 44.1 µM (inactive)

## Task Look up GI50 with KM12 for this compound: O=C(Cc1nc2ccc(C(=O)c3ccccc3)cc2nc1O)C(=O)Nc1ccccc1[N+](=O)[O-]
## Result 24 µM (inactive)

* * *

Tested on: SNB-75
Assay: NCI tumour cell line growth inhibition, 48 h
The source made the active and inactive calls. Cut-off read from the data, not from the text of the source: active = GI50 up to about 1.1 µM and inactive = higher.
Measure Name: GI50

## Task Tell me the measured GI50 of CCCCCCCCC#CCCCCCCC(F)C(=O)O (centres undefined) , please.
## Result > 100 µM (inactive)

## Task Tell me the measured GI50 of O=C(N/N=C\c1cccs1)c1ccncc1 , please.
## Result > 100 µM (inactive)

## Task Tell me the measured GI50 of OCC#CCNCl , please.
## Result > 100 µM (inactive)

## Task Tell me the measured GI50 of CCOc1ccccc1NC(=O)CC1C(=O)Nc2ccccc2[S+]1[O-] (centres undefined) , please.
## Result > 100 µM (inactive)

## Task Tell me the measured GI50 of CCOC(=O)Cc1nc2c(O)ncnc2n1C1OC(COC(C)=O)C(OC(C)=O)C1OC(C)=O (centres undefined) , please.
## Result > 100 µM (inactive)

## Task Tell me the measured GI50 of O=C(O)CCCNS(=O)(=O)c1ccc2ccccc2c1 , please.
## Result > 100 µM (inactive)

## Task Tell me the measured GI50 of COc1ccccc1C[C@@H]1OC2(C=CC(=O)CC2SC(=O)c2ccccc2)O[C@H]1Cc1ccccc1OC (some centres undefined) , please.
## Result 1.78 µM (inactive)

## Task Tell me the measured GI50 of CC(C)(C)N/N=C(\C(=O)Nc1nnc(S)[nH]1)C1C(=O)Nc2ccccc2[S+]1[O-] (centres undefined) , please.
## Result > 100 µM (inactive)

## Task Tell me the measured GI50 of O=c1cc(CBr)c2ccc(O)cc2o1 , please.
## Result > 100 µM (inactive)

## Task Tell me the measured GI50 of CCC1C(=O)OCc2c1cc1n(c2=O)Cc2ccccc2-1 (centres undefined) , please.
## Result > 100 µM (inactive)

## Task Tell me the measured GI50 of COC(=O)/C=C/C1(O)C=CC(=O)C=C1 , please.
## Result 9.86 µM (inactive)

## Task Tell me the measured GI50 of CCCCNC1CCCCC[C@H]1O (some centres undefined) , please.
## Result > 100 µM (inactive)

## Task Tell me the measured GI50 of COc1ccc(-n2c(=O)n(C)c(=O)n2-c2ccc(OC)cc2)cc1 , please.
## Result 56.6 µM (inactive)

## Task Tell me the measured GI50 of O=C(NCc1ccccc1)C1C(=O)C(=O)N(Cc2ccccc2)C1=O (centres undefined) , please.
## Result > 100 µM (inactive)

## Task Tell me the measured GI50 of Cc1ccc(S(=O)(=O)N/N=C2/CC[C@H](C(C)(C)C)C[C@@H]2C)cc1 , please.
## Result 17.8 µM (inactive)

## Task Tell me the measured GI50 of COc1cc2c(cc1OC)C13CCN4CC5=CCOC6CC(=O)N2C1C6C5CC43O (centres undefined) , please.
## Result > 100 µM (inactive)

## Task Tell me the measured GI50 of C=C(CCOC)CCC1CCCCC(CN(C)C)C1=O (centres undefined) , please.
## Result > 100 µM (inactive)

## Task Tell me the measured GI50 of NNC(=O)Cc1cccnc1 , please.
## Result > 100 µM (inactive)

## Task Tell me the measured GI50 of CN(C)CCNC(=O)c1cccc2[nH]c(-c3ccccn3)nc12 , please.
## Result 21.2 µM (inactive)

## Task Tell me the measured GI50 of O=c1ccc2c(Cl)sc(Cl)c2[nH]1 , please.
## Result > 100 µM (inactive)

## Task Tell me the measured GI50 of COC1(OC)CC(CO)(CNc2nc(N)nc(Cl)c2C=O)C1 , please.
## Result 90.4 µM (inactive)

## Task Tell me the measured GI50 of COc1ccc(NC(/C(C(=O)c2ccccc2)=C(\O)C(=O)/C=C(\O)c2ccccc2)c2ccc(OC)cc2)cc1 (centres undefined) , please.
## Result 17.8 µM (inactive)

## Task Tell me the measured GI50 of CCOC(=O)NC(OCCN(C)C)(C(F)(F)F)C(F)(F)F , please.
## Result > 100 µM (inactive)

## Task Tell me the measured GI50 of N#C/N=C1\NC(Cc2ccccc2)C(=O)N1CCc1c[nH]c2ccccc12 (centres undefined) , please.
## Result 8.87 µM (inactive)

## Task Tell me the measured GI50 of CCOC(=O)c1cc(C2(O)CCN(Cc3ccccc3)C2=O)c(-c2cc(C)no2)[nH]1 (centres undefined) , please.
## Result 26.6 µM (inactive)

## Task Tell me the measured GI50 of c1ccc2c[n+](CCCCCCCCCC[n+]3ccc4ccccc4c3)ccc2c1 , please.
## Result 3.68 µM (inactive)

## Task Tell me the measured GI50 of OCCCCCNc1cc(O)nc(O)n1 , please.
## Result > 100 µM (inactive)

## Task Tell me the measured GI50 of Cc1ccc2nc(Cl)c(/C=N/N3C(=O)/C(=C/c4ccccc4S)N=C3c3ccccc3)cc2c1 , please.
## Result 22.1 µM (inactive)

## Task Tell me the measured GI50 of COC(=O)c1nc(-c2nc(CCNC(=O)OC(C)(C)C)sc2Cl)sc1Cl , please.
## Result 23.1 µM (inactive)

## Task Tell me the measured GI50 of COc1ccc2c(c1)CN1CCc3c(cc(OC)c(OC)c3OC)C1C2 (centres undefined) , please.
## Result > 100 µM (inactive)

## Task Tell me the measured GI50 of O=C(Cc1nc2ccc(C(=O)c3ccccc3)cc2nc1O)C(=O)Nc1ccccc1[N+](=O)[O-] , please.
## Result 26.2 µM (inactive)

## Task Tell me the measured GI50 of CC(C)C1=C(Cc2ccccc2)C(=O)O/C1=C\c1cc(Cl)c(O)c(Cl)c1 , please.
## Result 20.1 µM (inactive)

## Task Tell me the measured GI50 of O=C(c1cc2c(C(F)(F)F)onc2c2ccccc12)C(F)(F)F , please.
## Result 1.16 µM (inactive)

## Task Tell me the measured GI50 of c1c[nH]c(-c2ccc(-c3ccc[nH]3)c3nsnc23)c1 , please.
## Result 2.65 µM (inactive)

## Task Tell me the measured GI50 of COC(=O)C(c1n[nH]c2ccccc12)C(C(=O)OC)c1n[nH]c2ccccc12 (centres undefined) , please.
## Result 50.1 µM (inactive)

## Task Tell me the measured GI50 of CC(C)(C)OC(=O)N1CC(CCl)c2ccc(O)cc21 (centres undefined) , please.
## Result 1.39 µM (inactive)

## Task Tell me the measured GI50 of [N-]=[N+]=NI1OC(=O)c2ccccc21 , please.
## Result > 100 µM (inactive)

## Task Tell me the measured GI50 of Cc1[nH]c2ccccc2c1C1Cc2ccccc2N1C(=O)C#Cc1ccc([N+](=O)[O-])cc1 (centres undefined) , please.
## Result > 100 µM (inactive)

## Task Tell me the measured GI50 of S=C(N/N=C(/c1ccccc1)c1ccccn1)Nc1ccccc1Cl , please.
## Result 6.64 µM (inactive)

## Task Tell me the measured GI50 of O=C(O)c1cc2ccccc2c2c1C(=O)c1ccccc1-2 , please.
## Result > 100 µM (inactive)

## Task Tell me the measured GI50 of O=c1[nH]c(=O)n(COCc2ccccc2)c2ccsc12 , please.
## Result 75 µM (inactive)

## Task Tell me the measured GI50 of Cc1nc(-n2nc(-c3ccccc3)cc2-c2ccccc2)sc1C(=O)CC(=O)C(=O)Nc1ccc(Cl)c(Cl)c1 , please.
## Result 55 µM (inactive)

## Task Tell me the measured GI50 of COC(=O)/C=C(\CC(=O)OC)n1nnnc1[C@@H]1C[C@H](COC(c2ccccc2)(c2ccccc2)c2ccccc2)[C@H]2OC(C)(C)O[C@H]21 , please.
## Result 37.2 µM (inactive)

## Task Tell me the measured GI50 of COc1cc(C2c3cc4c(cc3[C@H](NC(=O)c3cccs3)C3COC(=O)[C@H]23)OCO4)cc(OC)c1OC (some centres undefined) , please.
## Result < 0.0152 µM (active)
